B1: tRNA (parent)
chain: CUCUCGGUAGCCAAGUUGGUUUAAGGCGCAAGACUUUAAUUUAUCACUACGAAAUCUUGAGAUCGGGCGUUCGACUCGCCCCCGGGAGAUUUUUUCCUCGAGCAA

variants of: B1; test: nonsense suppression (GFP-seq) (ratio to wild type); higher = more function; SUP4oc tRNA, yeast GFP reporter sort-seq
This sample holds only a part of the variants without activity.
Reported nonsense suppression values follow for various variants

# BIOSEQUENCE, RESULT MODIFIER, nonsense suppression
data = [
    ("CUCUCGGUAGCCAAGUUGGUAUAAGGCGCAAGACUUUAAUUUAUCACUACGAAACCGUGAGAUCGGGCGUUCGACUCGCCCCCGGGAGAUUUUUUCCUCGAGCAA [U21A U55C U57G]", "≤", 0.026),
    ("CUCUUGGUAGCCAAGUUGGUUUGAGGCGCAAGACUUUAAUUUAUCACUACGAAAUCUUGAGAUCGGGCGUUCGACUCGCCCCCGGGAGAUUUUUUCCUCGAGCAA [C5U A23G]", "=", 0.0405),
    ("CUCUCGGUAGCCAAGUUGGUGUAAGGCGCAAGACUUUAAUUUAUCACUACGAAAUCUUGAGAUCGGGCGUUCGACUCGCCCCCGAGAGAUUUUUUCCUCGAGCAA [U21G G85A]", "=", 1.08),
    ("CUCUCGGUAGCCAAGUUGGUUUAAGGCGCAAGACUUUAAUUUAUCACUACGAAAUCUUGCGAUCGGGCGUUCGAUUCGCCCCCGGGAGAUUUUUUCCUCGAGCAA [A60C C75U]", "=", 0.167),
    ("CUCUCGGUAGCCAAGUUGGUUUAAGGCGCAGGACUUUAAUUUAUCACUACGAAAUCUUGAGAUCGGUCGUUCGGCGCGCCACCGGGAGAUUUUUUCCUCGAGCAA [A31G G67U A74G U76G C81A]", "≤", 0.026),
    ("CUCUCGGUAGCCAAGUUGGUUUAAUGCGCAAGACUUUAAUUUAUCACUACGAAAUCUUGAGAUCGGGCGUUCGAUUCGCCCCCGGGAGAUUUUUUCCUCGAGCAA [G25U C75U]", "≤", 0.026),
    ("CUCCCGGUAGCCAAGUUGGUUUAAGGCGCAAGACUUUAAUUUAUCACUACGAAAUCUUGAGUUCGGGCGUUCGACUCGCCCCCGGGAGAUUUUUUCCUCGAGCAA [U4C A62U]", "=", 0.272),
    ("CUCUAGGUAGCCAAGUUGGUUUAAGGCGCAAGACUUUAAUUUAUCACUACGAAAUCUUGACAUCGGGCGUUCGACUCGCCCCCGGGAGAUUUUUUCCUCGAGCAA [C5A G61C]", "=", 0.0329),
    ("CUCUCGGUAGCAAAGUUGGUUUAAGGCGCAAGACUUUAAUUUAUCACUACGAAAUCUUGACAUCGCGCGUUCGACUCGCCCCCGGGAGAUUUUUUCCUCGAGCAA [C12A G61C G66C]", "≤", 0.026),
    ("CUCUCGUUAGCCAAGUUGGUUUAAGGUGCAAGACAUUAAUUUAUCACUACGAAAUCUUGAGAUCGGGCGUUCGCCUCGCCCCCGGGAGAUUUUUUCCUCGAGCAA [G7U C27U U35A A74C]", "≤", 0.026),
    ("CUCUCGAUAGCCAAGGUGGUUUAAGCCGCAAGACUUUAAUUUAUCACUACGAAAUCUUGAGAUCGGGCGUGCGACUCGCCCCCGGGAGAUUUUUUCCUCGAGCAA [G7A U16G G26C U71G]", "≤", 0.026),
    ("CUCCCGGUAGCCAAGUUGGUUUAAGGCGCAAGACUUUAAUUUAUCACUACGAAAUCUUGAGAUCGGGCGUUCGACUCACCCCCGGGAGAUUUUUUCCUCGAGCAA [U4C G78A]", "=", 0.978),
    ("CUCUCGGUAGCCAAAUUGGUCUAAGGCGCAAGAGGUUAAUUUAUCACUACGAAAUCUAGAGAUCGGGCGUUCGACUCGCCCCCGGGAGAUUUUUUCCUCGAGCAA [G15A U21C C34G U35G U58A]", "≤", 0.026),
    ("CUCUCGGUAGCCAAGUUUGUUUAAGGCGCAAGACUUUAAUUUAUCACUACGAAAUCUUAAGAUCGGGCGUUCGACUCGCCCCCGGGAGAUUUUUUCCUCGAGCAA [G18U G59A]", "≤", 0.026),
    ("CUCUCGGUAGCCAAGUUGGUUUAAGGCGCAAGACUUUAAUUUAUCACUACGAAAUCUUGAUAUCGGGCGUUCGAGUCGCCCCCGGGAGAUUUUUUCCUCGAGCAA [G61U C75G]", "=", 1.08),
    ("CUCUCGGUAGCCAAGUUGGUUUAAGGCGCAAGACUUUAAUUUAUCACUACGAAAUCUUGAGAUCGGGCGUGCGACUAGUCCCCGGGUGAUUUUUUCCUCGAGCAA [U71G C77A C79U A87U]", "≤", 0.026),
    ("CGCUCGGUAGCCAAGUUGGUUUAAGGCGCAAGACUUUAAUUUAUCACUACGAAAUCUUGAGAUCGGGCGUUCGACUUGCCCCCGGGAGAUUUUUUCCUCGAGCAA [U2G C77U]", "≤", 0.026),
    ("CUCUCGGUAGCCAAGUUGGUAAAAGGCCCAAGACUUUAAUUUAUCACUACGAAAACUUGAGAUCGGGCAUUCGACUCGCCCCCGGGAGAUUUUUUCCUCGAGCAA [U21A U22A G28C U55A G69A]", "≤", 0.026),
    ("CUCUCGGUAGCCAAGUUGGUUUAAGGCCCAAGACUUUAAUUUAUCACUACGAAAUCUUGAGAUCGGGCGUUCGACUCGCCCCCGUGAGAUUUUUUCCUCGAGCAA [G28C G85U]", "=", 0.208),
    ("CUCUCGGUAGCCAAGUUGGUUUAAGGCGCAAGACUUUAAUUUAUCACUACGAAAUCUUGAGAUUGGGCGUUCGACUCGCCACCGGGAGAUUUUUUCCUCGAGCAA [C64U C81A]", "≤", 0.026),
    ("CUCUCGGUAGCCAAGUUGGUUUAAGGCGCAAGACUUUAAUUUAUCACUACGAAAUCUCGAGAUCGGGCGUUCGACUCGCCCCCGGGAGCUUUUUUCCUCGAGCAA [U58C A89C]", "≤", 0.026),
    ("CUCUCGGUAGCCAAGUUGGUUUAAGGCACAAGACUUUAAUUUAUCACUACGAAAUCUUGAGAUCGGGCGUUCGACUCCCCCCCGGGAGAUUUUUUCCUCGAGCAA [G28A G78C]", "=", 0.0938),
]
